Molecular target: SARS-CoV-2 Beta (B.1.351) Spike on pseudovirions (SARS-CoV-2)
Assay: cell-based or functional assay
Consider the following binders and their measured pseudovirus neutralization IC50 readings.

# Binder, pseudovirus neutralization IC50 (µg/mL)
measured = [
    ("ShAb02-Foldon (ShAb02 VNAR-KESlinker-Foldon-3c-His8-Strep) (VNAR) VNAR: ARVDQTPQTITKETGESLTINCVLRDSNCALASTDWYRKKSGSTNEESISKGGRYVETVNSGSKSFSLRINDLTVEDSGTYRCNAWDSWETRQLKCDYDVYGGGTVVTVNK", 0.397),
    ("ShAb01H06K (ShAb01Hole-06Knob) (bispecific antibody, V domains shown) V domain 1: ARVDQTPRSVTKETGESLTINCVLRDSNCALSSTHWYRKKSGSTNEERILQGRRYVETVNSGSKSFSLRINDLRVEDSGTYRCKVYWGNSWQDKFCPGLGSYEYGDGTAVTVNS V domain 2: ARVDQTPRSVTKETGESLTINCVLRDASYALGSTCWYRKKSGSTNEESISKGGRYVETVNSGSKSFSLRINDLTVEDGGTYRCGVGRGLGVGCDYPLCSYSYAACGDGTAVTVNS", 1.28),
    ("ShAb06H02K (ShAb06Hole-02Knob) (bispecific antibody, V domains shown) V domain 1: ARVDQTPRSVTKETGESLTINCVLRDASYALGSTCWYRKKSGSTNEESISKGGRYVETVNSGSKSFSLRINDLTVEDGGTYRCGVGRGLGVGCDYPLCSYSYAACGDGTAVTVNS V domain 2: ARVDQTPQTITKETGESLTINCVLRDSNCALASTDWYRKKSGSTNEESISKGGRYVETVNSGSKSFSLRINDLTVEDSGTYRCNAWDSWETRQLKCDYDVYGGGTVVTVNS", 0.18),
    ("ShAb01-Foldon (ShAb01 VNAR-KESlinker-Foldon-3c-His8-Strep) (VNAR) VNAR: ARVDQTPRSVTKETGESLTINCVLRDSNCALSSTHWYRKKSGSTNEERILQGRRYVETVNSGSKSFSLRINDLRVEDSGTYRCKVYWGNSWQDKFCPGLGSYEYGDGTAVTVNK", 0.075),
]
